Hey, just so you know, these numbers are from paper doi:10.1101/2024.07.10.602875v1.

- Assay system: TgIMPα (Toxoplasma gondii)
- Sequence (A0A125YID0 1-545): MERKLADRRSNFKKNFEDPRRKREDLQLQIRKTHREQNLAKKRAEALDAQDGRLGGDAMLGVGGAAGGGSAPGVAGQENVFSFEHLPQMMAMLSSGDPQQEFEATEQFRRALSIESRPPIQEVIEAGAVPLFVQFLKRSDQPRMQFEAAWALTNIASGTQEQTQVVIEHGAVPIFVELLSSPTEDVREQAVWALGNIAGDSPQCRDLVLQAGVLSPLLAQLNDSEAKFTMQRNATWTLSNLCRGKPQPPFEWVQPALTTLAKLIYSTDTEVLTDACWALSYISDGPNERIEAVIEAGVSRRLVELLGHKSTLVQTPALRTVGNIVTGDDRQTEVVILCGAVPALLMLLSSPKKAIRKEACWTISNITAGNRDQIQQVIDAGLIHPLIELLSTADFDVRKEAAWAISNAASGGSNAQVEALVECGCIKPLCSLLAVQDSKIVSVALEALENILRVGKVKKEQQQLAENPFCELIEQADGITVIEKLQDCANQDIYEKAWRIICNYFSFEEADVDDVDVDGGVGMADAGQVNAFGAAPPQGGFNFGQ
- Assay comment: AlphaScreen, inhibition of IMPα:NLS interaction
- Assay type: binding
Readout kind: pIC50
Would you please state pIC50, meaning minus log10 of the concentration in mol/L, as a bare number?

pIC50 reading for Cc1ccc(S(=O)(=O)/C=C/C#N)cc1 : 5.09
